# Tested on: SF-268 CNS
# Experiment: NCI tumour cell line growth inhibition, 48 h; in the data active means GI50 below about 0.43 µM; inactive means the rest
Return exactly one item of active, inactive

Query: In this assay, the call recorded for `C[C@]12CC[C@@H]3c4cc(OC(F)F)c(OS(N)(=O)=O)cc4CC[C@H]3[C@@H]1CC[C@@H]2OS(N)(=O)=O` was what?
Reply: inactive

Query: In this assay, the call recorded for `N/C(=N/N=C/c1ccccc1)N/N=C\c1ccccc1` was what?
Reply: inactive

Query: In this assay, the call recorded for `CCCCCCCCC/C(=N\NC(=O)c1ccncc1)c1ccc(O)c(O)c1O` was what?
Reply: active

Query: In this assay, the call recorded for `S=C(NCCNC(=S)[S][Sn]([c]1ccccc1)([c]1ccccc1)[c]1ccccc1)[S][Sn]([c]1ccccc1)([c]1ccccc1)[c]1ccccc1` was what?
Reply: active

Query: In this assay, the call recorded for `CC/C(=C(/c1ccc(O)cc1)c1ccc(OCCN)cc1)c1ccccc1` was what?
Reply: inactive

Query: In this assay, the call recorded for CC(C)(C)[Si](C)(C)OC1[C@@H](O[Si](C)(C)C(C)(C)C)[C@@H](CNC(=O)NC(=O)CF)O[C@H]1n1cnc2c(NC(=O)Nc3ccccc3)ncnc21 (stereo not given in full) was what?
Reply: inactive

Query: In this assay, the call recorded for `CC[C@@]1(O)C(=O)OCc2c1cc1n(c2=O)Cc2cc3cccc([N+](=O)[O-])c3nc2-1` was what?
Reply: inactive

Query: In this assay, the call recorded for `N=C(N)SCc1c2ccccc2c(CSC(=N)N)c2ccccc12` was what?
Reply: inactive

Query: In this assay, the call recorded for `CCCCCCn1c(-c2ccc(C(=O)O/N=C(\N)c3ccc4ccccc4c3)cc2)nc(-c2ccccc2)c1-c1ccccc1` was what?
Reply: inactive

Query: In this assay, the call recorded for `Clc1ccc(Nc2ccnc(N3CCN(c4ccnc5cc(Cl)ccc45)CC3)n2)cc1` was what?
Reply: inactive

* * *

# Tested on: SF-295 CNS
# Experiment: NCI tumour cell line growth inhibition, 48 h
Kindly state TGI for each of the entries shown.

Query: Field request: TGI | item: `O=C(CCCN1CCC(Nc2ccccc2)(c2nnnn2C2CCCCC2)CC1)c1ccc(F)cc1`
Reply: 41.8 µM

Query: Field request: TGI | item: COc1ccc(-c2c3c(n(C4OC(COC(C)=O)C(OC(C)=O)C(OC(C)=O)C4OC(C)=O)c(=S)c2C#N)CCC3)cc1 (centres undefined)
Reply: > 100 µM

Query: Field request: TGI | item: CC(C)CC(=O)NC(C(=O)NC(C(=O)NC(CC(C)C)C(O)CC(=O)NC(C)C(=O)NC(CC(C)C)C(O)CC(=O)O)C(C)C)C(C)C (centres undefined)
Reply: > 100 µM

Query: Field request: TGI | item: `CCc1nc(N)nc(N)c1-c1ccc2nnn(O)c2c1`
Reply: > 100 µM

Query: Field request: TGI | item: `NC(N)=NC(N)=Nc1cnccn1`
Reply: > 100 µM

Query: Field request: TGI | item: `Cc1c(Cl)nc(Cl)nc1Cl`
Reply: 10.6 µM

Query: Field request: TGI | item: `COC(=O)C(C)(C)[C@@H]1OC(=O)N(S(=O)(=O)c2c(C)cc(C)cc2C)[C@H]1C(C)C`
Reply: > 100 µM

Query: Field request: TGI | item: N#CC1=C(c2ccccc2)C(=C2Nc3ccccc3N2)C2S/C(=C\c3ccccc3)C(=O)N2C1=N (centres undefined)
Reply: 6.21 µM

Query: Field request: TGI | item: COC(=O)c1ccccc1CC(Cc1ccc2c(c1)CCC2)C(=O)OC (centres undefined)
Reply: > 100 µM

Query: Field request: TGI | item: O=C(O)c1cc2c(cc1CC(Cc1ccc3c(c1)CCCC3)C(=O)O)CCCC2 (centres undefined)
Reply: > 100 µM

Query: Field request: TGI | item: `CCN(CC)CCN(C(=Nc1ccccc1)N1CCCCC1)c1ccccc1`
Reply: 17.9 µM

Query: Field request: TGI | item: `O=C(OCc1ccc([N+](=O)[O-])cc1)N1c2ccccc2[C@@]23O[C@]24CCC[C@H]3C#C/C=C\C#C[C@H]14`
Reply: > 100 µM

Query: Field request: TGI | item: `O=C(O)COc1ccc(C(=O)/C(SS/C(C(=O)c2ccc(OCC(=O)O)c(Cl)c2Cl)=C2\C=C(c3ccc(Cl)cc3)SS2)=C2/C=C(c3ccc(Cl)cc3)SS2)c(Cl)c1Cl`
Reply: 82.5 µM

Query: Field request: TGI | item: `CCCCCCn1c(-c2ccc(C(=O)O/N=C(\N)c3ccc4ccccc4c3)cc2)nc(-c2ccccc2)c1-c1ccccc1`
Reply: > 83.7 µM

Query: Field request: TGI | item: CCOP12(OCC)NC(=O)OC1(C(F)(F)F)c1ccccc1O2 (centres undefined)
Reply: > 100 µM

Query: Field request: TGI | item: O=C(NCc1cccnc1)C1COc2cc(-c3cc(=O)c4ccccc4o3)ccc2O1 (centres undefined)
Reply: > 69.8 µM

Query: Field request: TGI | item: `COc1cc2cc(C(=O)Nc3cc4n(n3)-c3ccccc3C4)[nH]c2c(OC)c1OC`
Reply: 11.6 µM

Query: Field request: TGI | item: `COc1cc(-c2oc3c(OC)cc(OC)c(O)c3c(=O)c2OC)cc(OC)c1OC`
Reply: 7.55 µM

Query: Field request: TGI | item: `c1ccc(C(NC2=NCCO2)c2ccccc2)cc1`
Reply: > 10 µM
